Test system: RPEMYC^H2B-GFP cells
Experiment: Phenotypic screening assay (mitotic arrest, polyploidy)
Format: cell-based
Conditions: 1 nM to 30 μM, read-out: Proliferative arrest (>50%)
Protocol: We have previously developed a mechanism-informed phenotypic screening assay to identify novel antimitotic agents. […] At 24, 48 or 72 hours after initiation of treatment, cells were analyzed for either an arrest in mitosis or a change in DNA content by GE IN-Cell Analyzer 2000. […]
Measured Quantity: IC50

Example results:
>>> result_value("COc1cc(Oc2ccnc3ccc(C(N)=O)cc23)cc(-n2cccn2)c1 [Compound 61]")
"1 to 1000 nM"
>>> result_value("COc1cc(NC(C)=O)cc(Oc2ccnc3ccc(C(F)(F)F)cc23)c1 [Compound 55]")
"1 to 1000 nM"
>>> result_value("CCOc1cc(Oc2ccnc3cc(OC)c(C(N)=O)cc23)cc(-n2cccn2)c1 [Compound 59]")
"1 to 1000 nM"
>>> result_value("CNC(=O)c1ccc2nccc(Oc3cc(OC)cc(-n4cccn4)c3)c2c1 [Compound 57]")
"1 to 1000 nM"

Now turn to the next compound.
For the compound COc1cc(Oc2ccnc3ccsc23)cc(-n2cccn2)c1 [Compound 40] , what IC50 is on record?
1 to 1000 nM

* * *

The following molecules are listed with their measured minimal effective concentration values.
Test system: RPEMYC^H2B-GFP cells
Assay: Phenotypic screening assay (mitotic arrest, polyploidy)
Type: cell-based
Conditions: 1 nM to 30 μM, read-out: Mitotic Arrest (≥5%)

>>> result_value("COc1cc(Oc2cc(Cl)nc3ccc(Br)cc23)cc([N+](=O)[O-])c1")
"> 30 µM"

Provide the documented minimal effective concentration with RPEMYC^H2B-GFP cells as the system for CNC(=O)c1cc(OC)cc(Oc2ccnc3ccc(Br)cc23)c1
0.001 to 1 µM

Checklist item: minimal effective concentration tested on RPEMYC^H2B-GFP cells, entry COc1cc(Oc2ccnc3cc(OC)c(OC)cc23)cc(-c2ncccn2)c1 , value?
0.001 to 1 µM

Short answer please: minimal effective concentration, RPEMYC^H2B-GFP cells, entry COc1cc(Oc2ccnc3ccc(Br)cc23)cc(-n2cccn2)c1
0.001 to 1 µM

Tell me reported minimal effective concentration for COc1cc(Oc2ncnc3cc[nH]c23)cc(-n2cccn2)c1 , tested with RPEMYC^H2B-GFP cells.
0.001 to 1 µM

* * *

Test system: RPEMYC^H2B-GFP cells
Assay: Phenotypic screening assay (mitotic arrest, polyploidy)
Assay type: cell-based
Settings: 1 nM to 30 μM, read-out: Proliferative arrest (>50%)
pIC50: −log10 of the molar value.
Measured Quantity: pIC50

>>> result_value("CNC(=O)c1cc2c(Oc3cc(OC)cc(-n4cccn4)c3)ccnc2cc1OC [Compound 44]")
"5.00 to 6.00"
>>> result_value("COc1cc(OC)cc(Oc2ccnc3ccc(-c4ccco4)cc23)c1 [Compound 47]")
"5.00 to 6.00"
>>> result_value("COC(=O)c1cc(Oc2ncnc3ccsc23)cc(C(=O)OC)c1 [Compound 39]")
"6.00 to 9.00"
>>> result_value("COc1cc(Oc2ccnc3cc(OC)c(OC)cc23)cc(-n2cccn2)c1 [Compound 26]")
"6.00 to 9.00"

What pIC50 value was documented for this molecule, COC(=O)c1ccc2nccc(Oc3cc(OC)cc(-n4cccn4)c3)c2c1 [Compound 46] ?
6.00 to 9.00

Query (molecule): COc1cc(Oc2ccnc3cc(OC)c(C(N)=O)cc23)cc(-c2cnn(C)c2)c1 [Compound 66] ; field requested: pIC50
6.00 to 9.00

Given the entry COC(=O)c1ccc2nccc(Oc3cc(NC(C)=O)cc(OC)c3)c2c1 [Compound 42] , report its measured pIC50.
6.00 to 9.00

Sample COc1cc(Oc2ccnc3ccc(Br)cc23)cc(-c2nc(C)no2)c1 [Compound 67] — what was its pIC50?
6.00 to 9.00

For the molecule COc1cc(Oc2ccnc3ccc(Br)cc23)cc(-n2cccn2)c1 [Compound 21] , what pIC50 is on record?
6.00 to 9.00
